Origin of measurements: patent US20230381328A1

# System: myasthenogenic antibody mAB 198
# methodDescription: Peptide microarray mimotope screen, binding of mAB 198 to linear and cyclic peptides (fluorescence readout)
# Parameters: species or system rat
# assaySetup: linear mimotopes; binding of mAB 198, relative fluorescent signal after normalization against background
endpoint: relative signal [%] (%)

Observe how each entry below is paired with its result.
Query block: Given 29 (LHWNPAD) [compound 29] , state its recorded relative signal [%].
Result block: 15.7

Query block: Please look up its relative signal [%]: 11 (VRLRFNP) [compound 11]
Result block: 27.1

Query block: Entry under review: 27 (RYNPADY) [compound 27] . Reported relative signal [%]?
Result block: 16.5

A. 90 (CNLKYNP) [compound 90]
B. 10 (LRRNPADYG) [compound 10]
Query block: Hi, I'm comparing A with B and wondering which one has the bigger number for relative signal [%]. Any idea? Use the label to indicate which entry you chose.
Result block: B

A. 12 (VRLRYNP) [compound 12]
B. 88 (HRLRWNPAD) [compound 88]
Query block: Just curious, which one has the larger relative signal [%] reading, A or B ? Select an item and report its label.
Result block: A
(A: 26.3%, B: 6.7%)
